Taken from patent US5541175A.

Here, each record is paired with measured MIC data.
Test system: Klebsiella aerogenes SHV-1 1976E
Assay: Minimum inhibitory concentration (agar 2-fold dilution)
Format: cell-based
Settings: SHV11976E, K. aerogenes SHV-1 1976E, Muller-Hinton agar, 37° C., 20 hours
Field: numeric (µg/mL). Do not append units.

Q) I am curious: what MIC value has been reported for Nc1cc(N)[n+](C/C=C/C2=C(C(=O)[O-])N3C(=O)[C@@H](NC(=O)/C(=N\O[C@@H](C(=O)O)c4ccc(O)c(O)c4)c4csc(N)n4)[C@H]3SC2)cn1 ?
A) 1

Q) I am curious: what MIC value has been reported for Nc1nc(/C(=N/O[C@H](C(=O)O)c2ccc(O)c(O)c2)C(=O)N[C@@H]2C(=O)N3C(C(=O)[O-])=C(/C=C/C[n+]4cnc(N)c5c4CCC5)CS[C@H]23)cs1 ?
A) 0.13

Q) I am curious: what MIC value has been reported for Nc1cc[n+](C/C=C/C2=C(C(=O)[O-])N3C(=O)[C@@H](NC(=O)/C(=N\O[C@H](C(=O)O)c4ccc(O)c(O)c4)c4csc(N)n4)[C@H]3SC2)cn1 ?
A) 0.5

Q) I am curious: what MIC value has been reported for Nc1nc(/C(=N/O[C@@H](C(=O)O)c2ccc(O)c(O)c2)C(=O)N[C@@H]2C(=O)N3C(C(=O)[O-])=C(/C=C/C[n+]4cnc(N)c5c4CCC5)CS[C@H]23)cs1 ?
A) 1

Q) I am curious: what MIC value has been reported for Nc1cc[n+](C/C=C/C2=C(C(=O)[O-])N3C(=O)[C@@H](NC(=O)/C(=N\O[C@@H](C(=O)O)c4ccc(O)c(O)c4)c4csc(N)n4)[C@H]3SC2)cn1 ?
A) 1
